- Assay Name: Stability of example compounds in solid form (HPLC)
- Format: physicochemical
- Assay Conditions: solid, amber vial under Ar, 3 weeks, 0° C.
# Solid (%) 3 week 0° C. values compiled below
// return the numeric value with its unit appended

| Smiles | Endpoint Result |
| --- | --- |
| CC(C)(C)OC(=O)[C@@H](CCCOS(=O)(=O)c1ccc(-c2ccccc2)cc1)C[C@H](NC(c1ccccc1)(c1ccccc1)c1ccccc1)C(=O)OC(C)(C)C | 98.6% |

input: Need Solid (%) 3 week 0° C., item "CC(C)(C)OC(=O)[C@@H](CCCOS(=O)(=O)c1ccc(-c2ccc(S(=O)(=O)OCCC[C@@H](C[C@H](NC(c3ccccc3)(c3ccccc3)c3ccccc3)C(=O)OC(C)(C)C)C(=O)OC(C)(C)C)cc2)cc1)C[C@H](NC(c1ccccc1)(c1ccccc1)c1ccccc1)C(=O)OC(C)(C)C"
output: 97.9%

input: Need Solid (%) 3 week 0° C., item "CC(C)(C)OC(=O)[C@@H](CCCOS(=O)(=O)c1ccc2ccccc2c1)C[C@H](NC(c1ccccc1)(c1ccccc1)c1ccccc1)C(=O)OC(C)(C)C"
output: 99.8%

input: Need Solid (%) 3 week 0° C., item "CC(C)(C)OC(=O)[C@@H](CCCOS(=O)(=O)c1cccc2cccnc12)C[C@H](NC(c1ccccc1)(c1ccccc1)c1ccccc1)C(=O)OC(C)(C)C"
output: 89.0%

input: Need Solid (%) 3 week 0° C., item "CC(C)(C)OC(=O)[C@@H](CCCOS(=O)(=O)c1ccc([N+](=O)[O-])cc1)C[C@H](NC(c1ccccc1)(c1ccccc1)c1ccccc1)C(=O)OC(C)(C)C"
output: 99.1%

input: Need Solid (%) 3 week 0° C., item "CC(C)(C)OC(=O)[C@@H](CCCOS(=O)(=O)c1cccc([N+](=O)[O-])c1)C[C@H](NC(c1ccccc1)(c1ccccc1)c1ccccc1)C(=O)OC(C)(C)C"
output: 95.0%

input: Need Solid (%) 3 week 0° C., item "CC(C)(C)OC(=O)[C@@H](CCCOS(=O)(=O)c1ccc([N+](=O)[O-])c(C(F)(F)F)c1)C[C@H](NC(c1ccccc1)(c1ccccc1)c1ccccc1)C(=O)OC(C)(C)C"
output: 93.1%

input: Need Solid (%) 3 week 0° C., item "CC(C)(C)OC(=O)[C@@H](CCCOS(=O)(=O)c1cccc2ccccc12)C[C@H](NC(c1ccccc1)(c1ccccc1)c1ccccc1)C(=O)OC(C)(C)C"
output: 99.0%

input: Need Solid (%) 3 week 0° C., item "CC(C)(C)OC(=O)[C@@H](CCCOS(=O)(=O)c1c(Cl)cc(Cl)cc1Cl)C[C@H](NC(c1ccccc1)(c1ccccc1)c1ccccc1)C(=O)OC(C)(C)C"
output: 96.7%

* * *

# Solid (%) 4 week −20° C. values compiled below
- Assay Name: Stability of example compounds in solid form (HPLC)
- Format: physicochemical
- Assay Conditions: solid, amber vial under Ar, 4 weeks, −20° C.
# value in %; strip the unit string

Solved entries (count: 3):
| Smiles | Endpoint Result |
| --- | --- |
| CC(C)(C)OC(=O)[C@@H](CCCOS(=O)(=O)c1ccc([N+](=O)[O-])cc1)C[C@H](NC(c1ccccc1)(c1ccccc1)c1ccccc1)C(=O)OC(C)(C)C | 98.4 |
| CC(C)(C)OC(=O)[C@@H](CCCOS(=O)(=O)c1cccc2ccccc12)C[C@H](NC(c1ccccc1)(c1ccccc1)c1ccccc1)C(=O)OC(C)(C)C | 97.9 |
| CC(C)(C)OC(=O)[C@@H](CCCOS(=O)(=O)c1ccc(-c2ccccc2)cc1)C[C@H](NC(c1ccccc1)(c1ccccc1)c1ccccc1)C(=O)OC(C)(C)C | 98.0 |

input: Need Solid (%) 4 week −20° C., item "CC(C)(C)OC(=O)[C@@H](CCCOS(=O)(=O)c1ccc([N+](=O)[O-])c(C(F)(F)F)c1)C[C@H](NC(c1ccccc1)(c1ccccc1)c1ccccc1)C(=O)OC(C)(C)C"
output: 92.8
